assay: Cytotoxicity: viability of M17 cells; conditions: human, M17 neuroblastoma cells, Cytotoxicity (% viable at 1 and 10 uM), test compound 10 uM
Reported viability at 10 uM values for a set of molecules
The figure you give is taken to be in %; do not add the unit.

Recorded viability at 10 uM, per entry:
CCNCc1ccc2c(Cl)cc(Cl)c(O)c2n1.Cl | 44
Cc1noc(C)c1-n1cnc2c(O)c(Cl)cc(Cl)c2c1=O | 94.2
CCn1cnc2c(O)ccc(Cl)c2c1=O | 85.4

Data request, read-out viability at 10 uM, for `O=c1c2c(Cl)cc(Cl)c(O)c2ncn1Cc1ccncc1` 90.4

Data request, read-out viability at 10 uM, for `O=c1c2c(Cl)cc(Cl)c(O)c2ncn1Cc1ccccn1` 98.9

Data request, read-out viability at 10 uM, for `Br.CCCn1cnc2c(O)c(Cl)cc(Cl)c2c1=O` 98.8

Data request, read-out viability at 10 uM, for `Br.CN(C)Cc1nc2c(O)c(Cl)cc(Cl)c2c(=O)[nH]1` 100

Data request, read-out viability at 10 uM, for `CCc1cnc2c(O)cccn2c1=O` 27.1

Data request, read-out viability at 10 uM, for `O=c1c2c(Cl)cc(I)c(O)c2ncn1CC1CC1` 82.3

Data request, read-out viability at 10 uM, for `O=c1c2c(Cl)cc(Cl)c(O)c2ncn1N1CCOCC1` 80.9

Data request, read-out viability at 10 uM, for `CC(C)Cn1cnc2c(O)c(I)ccc2c1=O` 68.2

Data request, read-out viability at 10 uM, for `O=c1c2cccc(O)c2ncn1-c1nc2ccccc2[nH]1` 103

Data request, read-out viability at 10 uM, for `CCn1cnc2c(O)c(Cl)cc(Cl)c2c1=O` 95.9

Data request, read-out viability at 10 uM, for `CCCCCn1cnc2c(O)c(I)ccc2c1=O` 38.5

Data request, read-out viability at 10 uM, for Br.CCC(C)n1cnc2c(O)c(Cl)cc(Cl)c2c1=O (stereo not shown) [drawing 185] 74.5

Data request, read-out viability at 10 uM, for `O=c1c2c(Cl)ccc(O)c2ncn1Cc1ccccn1` 88.4

Data request, read-out viability at 10 uM, for `O=c1c2c(Cl)cc(Cl)c(O)c2ncn1N1CCCCC1` 72.7

Data request, read-out viability at 10 uM, for `CN(C)Cc1nc2c(O)c(Cl)cc(Cl)c2c(=O)n1CC1CC1.Cl` 74.5

Data request, read-out viability at 10 uM, for `O=c1c2ccc(I)c(O)c2ncn1CC1CC1` 65.1

Data request, read-out viability at 10 uM, for `O=c1c2c(Cl)cc(I)c(O)c2ncn1-c1cccnc1` 95

Data request, read-out viability at 10 uM, for `Cn1cnc(CCNC(=O)c2ccc3c(Cl)cc(Cl)c(O)c3n2)c1` 82.6

Data request, read-out viability at 10 uM, for `CN(C)Cc1ccc2c(Cl)cc(I)c(O)c2n1` 24.4

Data request, read-out viability at 10 uM, for `O=C(NCc1ccc(F)cc1)c1cnc2c(O)cccn2c1=O` 54.2

Data request, read-out viability at 10 uM, for `Br.CN(C)Cc1nc2c(O)c(Cl)cc(Cl)c2c(=O)n1C` 111

Data request, read-out viability at 10 uM, for `CCCn1cnc2c(O)c(I)ccc2c1=S` 86.2

Data request, read-out viability at 10 uM, for `Oc1c(N2CCOCC2)ncc2cccnc12` 93.7

Data request, read-out viability at 10 uM, for CCC(C)Cn1cnc2c(O)c(I)ccc2c1=O (stereo not shown) 19.3

Data request, read-out viability at 10 uM, for `O=c1c2cccc(O)c2ncn1-c1ccc(F)cc1` 67.5

Data request, read-out viability at 10 uM, for `O=c1c2ccc(I)c(O)c2ncn1Cc1ccccn1` 84.5

----------
experiment: Cytotoxicity: viability of M17 cells; conditions: human, M17 neuroblastoma cells, Cytotoxicity (% viable at 1 and 10 uM), test compound 10 uM
Reported viability at 10 uM values for a set of molecules
The figure you give is taken to be in %; do not add the unit.

Recorded viability at 10 uM, per entry:
CNS(=O)(=O)Cc1ccc(-n2cnc3c(O)c(Cl)cc(Cl)c3c2=O)cc1 | 98
OCCN1C=Nc2c(O)c(Cl)cc(Cl)c2C1 | 119
Nn1cnc2c(O)c(Cl)cc(Cl)c2c1=O | 104
O=c1c2ccc(I)c(O)c2ncn1-c1ccc(F)cc1 | 30.2
Oc1c(I)cc(Cl)c2cccnc12 | 72.7

Data request, read-out viability at 10 uM, for `CCc1cnc2c(O)c(I)ccn2c1=O` 23.3

Data request, read-out viability at 10 uM, for `O=c1c2c(Cl)cc(Cl)c(O)c2ncn1Cc1cccnc1` 95.4

----------
assay: Cytotoxicity: viability of M17 cells; conditions: human, M17 neuroblastoma cells, Cytotoxicity (% viable at 1 and 10 uM), test compound 1 uM
measure.name: viability at 1 uM (%)
The figure you give is taken to be in %; do not add the unit.

Data request, read-out viability at 1 uM, for `Cc1noc(-n2cnc3c(O)c(Cl)cc(Cl)c3c2=O)c1C` 99.6

Data request, read-out viability at 1 uM, for `Br.CCN(CC)CCn1cnc2c(O)c(Cl)cc(Cl)c2c1=O` 100

Data request, read-out viability at 1 uM, for `O=c1c(-c2ccc(Cl)cc2)cnc2c(O)cccn12` 41.2

Data request, read-out viability at 1 uM, for `Cn1cnc(CCNC(=O)c2ccc3c(Cl)cc(Cl)c(O)c3n2)c1` 108

Data request, read-out viability at 1 uM, for `O=c1c(-c2ccc(F)cc2)cnc2c(O)cccn12` 75.3

Data request, read-out viability at 1 uM, for `O=C(NCc1ccc(F)cc1)c1cnc2c(O)cccn2c1=O` 76.7

Data request, read-out viability at 1 uM, for `O=c1c2c(Cl)cc(Cl)c(O)c2ncn1N1CCOCC1` 95.9

Data request, read-out viability at 1 uM, for `CCCc1cnc2c(O)c(Cl)ccn2c1=O` 98.1

Data request, read-out viability at 1 uM, for `O=c1c2c(Cl)cc(Cl)c(O)c2ncn1CC1CCN(Cc2ccccc2)CC1` 109

Data request, read-out viability at 1 uM, for `O=c1c2cccc(O)c2ncn1Cc1ccccn1` 109

Data request, read-out viability at 1 uM, for `CCn1cnc2c(O)ccc(Cl)c2c1=O` 101

Data request, read-out viability at 1 uM, for `CCCCCn1cnc2c(O)c(Cl)cc(Cl)c2c1=O` 81.3

Data request, read-out viability at 1 uM, for `Br.O=c1c2c(Cl)cc(Cl)c(O)c2ncn1Cc1cccc(Cn2cnc3c(Cl)c(Cl)cc(Cl)c3c2=O)n1` 94.9

Data request, read-out viability at 1 uM, for `CCCCc1cnc2c(O)cccn2c1=O` 73.6

----------
Reported viability at 4 days, 1 uM values for a set of compounds
assay: Neurotoxicity assay: MTS viability of primary cortical neuronal cultures; format: cell-based, mouse; details: BL6Jx129sv, mouse, primary cortical neuronal cultures, Neuronal cells, test compound 1 uM; read-out: Cytotoxicity (% viable at 1 and 10 uM)
Reply with the number and its unit after it.

Recorded viability at 4 days, 1 uM, per entry:
Oc1cccc2ccc(CNCCc3c[nH]cn3)nc12 | 101%
O=c1c2c(Cl)cc(Cl)c(O)c2ncn1CC1CC1 | 116%
Oc1c(-c2cc3ccccc3s2)cc(Cl)c2cccnc12 | 87%
O=Cc1ccccc1-c1cc(Cl)c2cccnc2c1O | 109%
O=S(=O)(O)c1cc(I)c(O)c2ncccc12 | 70%
Cc1ccccc1-c1cc(I)c(O)c2ncccc12 | 99%

Data request, read-out viability at 4 days, 1 uM, for `Oc1c(Cl)cc(Cl)c2cc(Cl)cnc12` 82%

Data request, read-out viability at 4 days, 1 uM, for `Nc1ccccc1NC(=O)c1cc(O)c2cccc(O)c2n1` 98%

Data request, read-out viability at 4 days, 1 uM, for `Cc1cc(C)c2cccnc2c1O` 86%

Data request, read-out viability at 4 days, 1 uM, for `O=C(NCCc1c[nH]cn1)c1ccc2cccc(O)c2n1` 100%

Data request, read-out viability at 4 days, 1 uM, for `CCNCc1ccc2c(Cl)cc(Cl)c(O)c2n1.Cl` 87%

----------
experiment: Neurotoxicity assay: MTS viability of primary cortical neuronal cultures; format: cell-based, mouse; conditions: BL6Jx129sv, mouse, primary cortical neuronal cultures, Neuronal cells, test compound 10 uM; read-out: Cytotoxicity (% viable at 1 and 10 uM)
Reported viability at 4 days, 10 uM values for a set of molecules
The figure you give is taken to be in %; do not add the unit.

Oc1c(-c2cc3ccccc3s2)cc(Cl)c2cccnc12 | 32
CC(C)Cn1cnc2c(O)c(Cl)cc(Cl)c2c1=O | 70
CN(C)Cc1cnc2c(Cl)cc(Cl)c(O)c2n1.Cl | 93

Data request, read-out viability at 4 days, 10 uM, for `COc1ccc(-n2cnc3c(O)c(Cl)cc(Cl)c3c2=O)nc1` 93

Data request, read-out viability at 4 days, 10 uM, for `CNCc1ccc2c(Cl)cc(Cl)c(O)c2n1` 78

Data request, read-out viability at 4 days, 10 uM, for `O=c1[nH]cnc2c(O)cccc12` 89

Data request, read-out viability at 4 days, 10 uM, for `O=c1c2c(Cl)cc(Cl)c(O)c2ncn1-c1ccc(Cl)cn1` 58

Data request, read-out viability at 4 days, 10 uM, for `O=C(O)CNC(=O)c1ccc2cccc(O)c2n1` 89

Data request, read-out viability at 4 days, 10 uM, for `NC(=O)c1ccc2c(Cl)cc(Cl)c(O)c2n1` 86

Data request, read-out viability at 4 days, 10 uM, for `O=C(O)c1ccc2c(Cl)cc(Cl)c(O)c2n1` 80

Data request, read-out viability at 4 days, 10 uM, for `O=Cc1ccccc1-c1cc(Cl)c2cccnc2c1O` 99

Data request, read-out viability at 4 days, 10 uM, for `Nc1ccc(O)c2ncccc12` 71

Data request, read-out viability at 4 days, 10 uM, for `Oc1c(Br)cc(Br)c2cccnc12` 94
